assay: Cell Viability - LYMP2-003 (AID 965); details: LYMP2-003 lymphoblastoid cell viability; series mostly up to 92.2 µM;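 also: cells exposed to compounds for 24 h before reading; nearly all actives have a fitted effect of over 50% in size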
Inconclusive results are not listed. The source made the active and inactive calls. Calls follow the shape of the dose curve; as a rule, active = well fitted cell-killing curve with a large enough effect; inconclusive = small, poorly fitted or top-dose-only effect, or effect the other way; inactive = flat fitted curve, though single readings scatter.
Form entry, call: pick from t = active, f = inactive

Exercise: # fetch the recorded call for CCCCC(CC)COC(=O)c1ccccc1C(=O)O (centres undefined) here
Solution: f

Exercise: And then CCCCCCCCCCCCCCCC[n+]1ccccc1 , what is it?
Solution: t

Exercise: Also Cc1cc(C(C)(C)C)c(O)c(C(C)(C)C)c1 , if possible.
Solution: f

Exercise: Also need O=C(NO)c1ccccc1 , thanks.
Solution: f

Exercise: Try this compound next: Nc1ccc(O)cc1
Solution: t

Exercise: Further, for c1ccc2occc2c1 ?
Solution: f

Exercise: And what about the compound O=C(Oc1ccccc1)c1ccccc1O ?
Solution: f

Exercise: Could you do the same for O=C(c1ccccc1)c1ccccc1 , please?
Solution: f

Exercise: Now the compound Oc1ccccc1
Solution: f

Exercise: Follow-up entry: CC(C)(C)c1ccc(O)c(O)c1
Solution: t

Exercise: Next: Nc1cccc2c(N)cccc12
Solution: f

Exercise: Consider next the compound COc1cc(C=O)ccc1O in the same way.
Solution: f

Exercise: Same question, Cc1ccc(O)cc1 this time
Solution: f

Exercise: Follow-up item: Nc1c2ccccc2nc2ccccc12
Solution: t
